Listed here are compounds together with their documented IC50.
# subject.of.test: UniProt:P11229
# Format: cell-based, HEK-293T
Unit µM implied. Number only.

For orientation, consider the following solved cases.
# structure.string, subject.of.test, IC50 [µM]
records = [
    ("O=C1CCc2ccccc2N1CCCN1CCC(CCCCCCCCCO)CC1", "UniProt:P11229", 19.5),
    ("O=C1CCc2ccccc2N1CCCN1CCC(CCCCCO)CC1", "UniProt:P11229", 10),
    ("CN1CCC=C(c2nsnc2OCCCCCC2CCN(CCCN3C(=O)CCc4ccccc43)CC2)C1", "UniProt:P11229", 0.646),
    ("CN1CCC=C(c2nsnc2OCCCCCCCCCC2CCN(CCCN3C(=O)CCc4ccccc43)CC2)C1", "UniProt:P11229", 148),
]

Turning now to a further record.
Sample "CN1CCC=C(c2nsnc2OCCCCCCCC2CCN(CCCN3C(=O)CCc4ccccc43)CC2)C1" , system: UniProt:P11229. Its IC50 is 0.741

====

# subject.of.test: Muscarinic acetylcholine receptor M4 (Homo sapiens)
# assay.overview: Agonist activity at human M4 receptor expressed in HEK293T cells by BRET based Gi protein activation assay relative to carbachol
# experimental.setup: HEK-293T
Listed here are compounds together with their documented Emax.
Unit % implied. Number only.

# structure.string, recorded.value
measured = [
    ("CN1CCC=C(c2nsnc2OCCCCCCCC2CCN(CCCN3C(=O)CCc4ccccc43)CC2)C1", 40),
]

Turning now to a further record.
Given item "O=C1CCc2ccccc2N1CCCN1CCC(CCCCCO)CC1" , the value recorded as its Emax is 20

====

# subject.of.test: Muscarinic acetylcholine receptor M1 (Homo sapiens, UniProt P11229)
# Sequence (P11229 whole entry): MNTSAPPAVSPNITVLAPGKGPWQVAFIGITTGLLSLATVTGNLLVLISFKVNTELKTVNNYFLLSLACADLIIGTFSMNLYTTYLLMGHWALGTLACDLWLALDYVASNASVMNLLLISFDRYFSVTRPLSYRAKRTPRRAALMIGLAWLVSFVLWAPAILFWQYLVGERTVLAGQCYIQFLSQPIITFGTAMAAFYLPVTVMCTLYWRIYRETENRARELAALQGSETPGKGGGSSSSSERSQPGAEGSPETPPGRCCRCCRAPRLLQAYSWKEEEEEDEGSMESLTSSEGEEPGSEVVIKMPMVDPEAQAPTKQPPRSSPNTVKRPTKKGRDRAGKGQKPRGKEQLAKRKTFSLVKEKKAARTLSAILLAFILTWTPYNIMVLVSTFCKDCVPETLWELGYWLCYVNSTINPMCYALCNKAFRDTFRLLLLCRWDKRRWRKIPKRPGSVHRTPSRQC
measure: pIC50
Field pIC50 (float): negative decimal logarithm of the concentration in molar.

Given item "CN1CCC=C(c2nsnc2OCCCCCCCC2CCN(CCCN3C(=O)CCc4ccccc43)CC2)C1" , the value recorded as its pIC50 is 7.66

====

Listed here are compounds together with their documented Emax.
# subject.of.test: UniProt P11229
# assay.overview: Agonist activity at human M1 receptor expressed in HEK293T cells by BRET based Gq protein activation assay relative to carbachol
# Format: cell-based
# experimental.setup: HEK-293T
Give me the value, and tack the unit on after it.

For orientation, consider the following solved cases.
# structure.string, recorded.value
measured = [
    ("O=C1CCc2ccccc2N1CCCN1CCC(CCCCCO)CC1", "53%"),
    ("CCCCCCOc1nsnc1C1=CCCN(C)C1", "77%"),
    ("CCCCC1CCN(CCCN2C(=O)CCc3ccccc32)CC1", "57%"),
    ("CN1CCC=C(c2nsnc2OCCCCCCCC2CCN(CCCN3C(=O)CCc4ccccc43)CC2)C1", "25%"),
    ("CN1CCC=C(c2nsnc2OCCCCCCCCCC2CCN(CCCN3C(=O)CCc4ccccc43)CC2)C1", "31%"),
]

Given item "O=C1CCc2ccccc2N1CCCN1CCC(CCCCCCCO)CC1" , the value recorded as its Emax is 73%

Given item "O=C1CCc2ccccc2N1CCCN1CCC(CCCCCCCCCO)CC1" , the value recorded as its Emax is 22%

Given item "CN1CCC=C(c2nsnc2OCCCCCC2CCN(CCCN3C(=O)CCc4ccccc43)CC2)C1" , the value recorded as its Emax is 13%
